meta.source: patent US6358885B1

system: wild oat; test: Test B preemergence/postemergence greenhouse plant response rating 0 to 10; assay type: in vivo, Avena fatua; settings: POSTEMERGENCE, Rate 10 g/ha; 0 to 10 scale
Recorded Plant response rating, Wild oat, one value per entry.
readout.label: Plant response rating, Wild oat

| molecule | target.system | readout.label | test.value |
| --- | --- | --- | --- |
| COCN1C(=O)COc2cc(F)c(-c3nn4c(c3Cl)CCCC4)cc21 | wild oat | Plant response rating, Wild oat | 6 |
| C#CCN1C(=O)COc2cc(F)c(-c3nn4c(c3Cl)CCCC4)cc21 | wild oat | Plant response rating, Wild oat | 5 |
| CCCCN1C(=O)COc2cc(F)c(-c3nn4c(c3Cl)CCCC4)cc21 | wild oat | Plant response rating, Wild oat | 4 |
| CC(C#N)Oc1cc(-c2nn3c(c2Cl)CCCC3)c(F)cc1Cl (stereo not shown) | wild oat | Plant response rating, Wild oat | 2 |

* * *

test system: cocklebur; assay: Test B preemergence/postemergence greenhouse plant response rating 0 to 10; format: in vivo, Xanthium pensylvanicum; conditions: POSTEMERGENCE, Rate 200 g/ha; 0 to 10 scale
Recorded Plant response rating, Cocklebur, one value per entry.

| smiles.code | target.system | Plant response rating, Cocklebur |
| --- | --- | --- |
| Clc1ccc(-c2nn3c(c2Cl)CCCC3)c(Cl)c1 | cocklebur | 7 |
| CC(=O)c1cc(-c2nn3c(c2Cl)CCCC3)c(F)cc1Cl | cocklebur | 8 |
| CC(C)COc1cc(-c2nn3c(c2Cl)CCCC3)c(F)cc1Cl | cocklebur | 10 |
| CC(C)Oc1cc(-c2nn3c(c2Br)CCCC3)c(F)cc1Cl | cocklebur | 10 |
| Fc1cc(Cl)ccc1-c1nn2c(c1Br)CCCC2 | cocklebur | 8 |

* * *

tested on: sorghum; experiment: Test B preemergence/postemergence greenhouse plant response rating 0 to 10; type: in vivo, Sorghum bicolor; details: POSTEMERGENCE, Rate 50 g/ha; 0 to 10 scale

| compound | Plant response rating, Sorghum |
| --- | --- |
| CC(C)OC(=O)COc1cc(-c2nn3c(c2Br)CCCC3)c(F)cc1Cl | 4 |
| Clc1cc(Cl)c(-c2nn3c(c2Cl)CCCC3)cc1OCC1CC1 | 4 |
| CC(C)Oc1cc(-c2nn3c(c2Cl)CCCC3)c(F)cc1Cl | 5 |
| O=C1COc2cc(F)c(-c3nn4c(c3Cl)CCCC4)cc2N1 | 4 |
| C=CCOc1cc(-c2nn3c(c2Br)CCCC3)c(F)cc1Cl | 5 |
| CC(C)COc1cc(-c2nn3c(c2Cl)CCCC3)c(F)cc1Cl | 4 |
| Clc1ccc(-c2nc3n(c2Br)CCCC3)c(Cl)c1 | 4 |
| COc1cc(-c2nn3c(c2Cl)CCCC3)c(F)cc1Cl | 5 |
| CCS(=O)(=O)Oc1cc(-c2nn3c(c2Cl)CCCC3)c(F)cc1Cl | 4 |
| C=C(Cl)COc1cc(-c2nn3c(c2Cl)CCCC3)c(F)cc1Cl | 4 |
| Oc1cc(-c2nn3c(c2Cl)CCCC3)c(Cl)cc1Cl | 3 |
| Fc1cc(Cl)c(OCc2ccccc2)cc1-c1nn2c(c1Cl)CCCC2 | 5 |
| CC(C#N)Oc1cc(-c2nn3c(c2Cl)CCCC3)c(F)cc1Cl (stereo not drawn) | 3 |
| CCN1C(=O)COc2cc(F)c(-c3nn4c(c3Cl)CCCC4)cc21 | 3 |
| CC(C)Oc1cc(-c2nn3c(c2Br)CCCC3)c(F)cc1Cl | 5 |
| FCCCOc1cc(-c2nn3c(c2Cl)CCCC3)c(F)cc1Cl | 6 |
| Oc1cc(-c2nn3c(c2Br)CCCC3)c(F)cc1Cl | 3 |
| COC(=O)C(C)Oc1cc(-c2nn3c(c2Cl)CCCC3)c(F)cc1Cl (stereo not drawn) | 7 |
| C#CC(C)Oc1cc(-c2nn3c(c2Cl)CCCC3)c(F)cc1Cl (stereo not drawn) | 5 |
| C#CC(C)Oc1cc(-c2nn3c(c2Cl)CCCC3)c(Cl)cc1Cl (stereo not drawn) | 5 |
| CON=C(C)c1cc(-c2nn3c(c2Cl)CCCC3)c(F)cc1Cl | 2 |
